method.summary: Volume of distribution in rat at 5 mg/kg, iv
Assay type: ADME, organism-based
Set-up: dose 5 mg/kg, route intravenous
stated.conditions: in vivo, read-out: Vss
result.type: Vd (L/kg)
The answer is to be given in L/kg; state only the numeric part.

# molecule O=C(Nc1ccccc1F)N[C@H]1N=C(c2ccccc2)c2ccccc2NC1=O [RSV-604] ; its Vd = 2.2

---

method.summary: Fraction unbound ligand in human serum
Type: ADME, cell-free
result.type: fraction unbound

# molecule "O=C(Nc1ccccc1F)N[C@H]1N=C(c2ccccc2)c2ccccc2NC1=O" ; its fraction unbound = 0.05

---

method.summary: in vivo
stated.conditions: rat, plasma, iv, 5 mg/kg
Description: AUC (0-infinity) in rat at 5 mg/kg, iv
result.type: AUC(0-inf) (ng·h/mL)
The answer is to be given in ng·h/mL; state only the numeric part.

# compound O=C(Nc1ccccc1F)N[C@H]1N=C(c2ccccc2)c2ccccc2NC1=O [RSV-604] ; its AUC(0-inf) = 11700

---

method.summary: Fraction unbound ligand in dog serum
Type: ADME, cell-free, Canis lupus familiaris
result.type: fraction unbound
Please respond with just the number, no unit label.

# compound O=C(Nc1ccccc1F)N[C@H]1N=C(c2ccccc2)c2ccccc2NC1=O [RSV-604] ; its fraction unbound = 0.05

---

method.summary: Oral bioavailability in rat at 5 mg/kg, po in 1% CMC suspension
Assay type: ADME, organism-based
stated.conditions: in vivo
result.type: bioavailability

# molecule "O=C(Nc1ccccc1F)N[C@H]1N=C(c2ccccc2)c2ccccc2NC1=O" ; its bioavailability = < 40%

---

System: Respiratory syncytial virus
method.summary: Antiviral activity against RSV RSS in Hep2 cells by XTT assay
Assay type: functional, organism-based, HEp-2
stated.conditions: human respiratory syncytial virus, RSS, HEp-2
Listed compounds paired with reported IC50
The answer is to be given in µM; state only the numeric part.

These recorded examples may help you get a feel for the data.
# compound O=C(Nc1ccccc1F)NC1N=C(c2ccccc2)c2ccccc2NC1=O (centres undefined) ; its IC50 = 27.8

# compound "COc1cc(S(C)(=O)=O)ccc1C(=O)N[C@H]1N=C(c2ccccc2)c2ccccc2NC1=O" ; its IC50 = 0.5

# compound "O=C(N[C@H]1N=C(c2ccccc2)c2ccccc2NC1=O)c1cccnc1N1CCOCC1" ; its IC50 = 2.9

Next item in the queue.
# compound "O=C(N[C@H]1N=C(c2ccccc2)c2ccccc2NC1=O)C1CCCCC1" ; its IC50 = 3.3

---

method.summary: Apparent permeability coefficient assessed using MDCK cells
Assay type: ADME, cell-based, Canis lupus familiaris
stated.conditions: dog
result.type: Papp (×10⁻⁶ cm/s)
The answer is to be given in ×10⁻⁶ cm/s; state only the numeric part.

# molecule "O=C(Nc1ccccc1F)N[C@H]1N=C(c2ccccc2)c2ccccc2NC1=O" ; its Papp = 13

---

method.summary: in vivo
stated.conditions: rat, plasma, po, 5 mg/kg
Description: AUC (0-infinity) in rat at 5 mg/kg, po
result.type: AUC(0-inf)

# compound O=C(Nc1ccccc1F)N[C@H]1N=C(c2ccccc2)c2ccccc2NC1=O [RSV-604] ; its AUC(0-inf) = 10900 ng·h/mL

---

Listed compounds paired with reported solubility
method.summary: Aqueous solubility at pH 7.0
Format: physicochemical
The answer is to be given in µg/mL; state only the numeric part.

These recorded examples may help you get a feel for the data.
# compound "O=C(Nc1ccccc1F)N[C@H]1N=C(c2ccccc2)c2ccccc2NC1=O" ; its solubility = 4.1

# compound "O=C(N[C@H]1N=C(c2ccccc2)c2ccccc2NC1=O)c1ccc(N2CCOCC2)cc1Cl" ; its solubility = 0.9

Next item in the queue.
# compound "COc1cc(S(C)(=O)=O)ccc1C(=O)N[C@H]1N=C(c2ccccc2)c2ccccc2NC1=O" ; its solubility = 22

---

Listed compounds paired with reported pIC50
System: Respiratory syncytial virus
method.summary: Antiviral activity against RSV RSS in Hep2 cells by XTT assay
Assay type: functional, organism-based, HEp-2
stated.conditions: human respiratory syncytial virus, RSS, HEp-2
Remember, pIC50 is on a log scale: it is -log10 of the molar concentration.

# compound COc1cc([N+](=O)[O-])ccc1C(=O)NC1N=C(c2ccccc2)c2ccccc2NC1=O (stereo not given) ; its pIC50 = 5.70

# compound "COc1cc([N+](=O)[O-])ccc1C(=O)N[C@H]1N=C(c2ccccc2)c2ccccc2NC1=O" ; its pIC50 = 6.05

# compound "O=C(N[C@H]1N=C(c2ccccc2)c2ccccc2NC1=O)c1cc(Cl)ccc1N1CCS(=O)(=O)CC1" ; its pIC50 = 5.66

Further cases:
# compound "O=C(N[C@H]1N=C(c2ccccc2)c2ccccc2NC1=O)c1ccc(N2CCOCC2)cc1Cl" ; its pIC50 = 5.85

# compound "O=C(N[C@H]1N=C(c2ccccc2)c2ccccc2NC1=O)c1cc(F)ccc1N1CCS(=O)(=O)CC1" ; its pIC50 = 6.15

---

method.summary: Half life in rat at 5 mg/kg, iv
stated.conditions: in vivo
result.type: half-life (h)
The answer is to be given in h; state only the numeric part.

# molecule "O=C(Nc1ccccc1F)N[C@H]1N=C(c2ccccc2)c2ccccc2NC1=O" ; its half-life = 3.8

---

method.summary: Fraction unbound ligand in rat serum
Format: ADME, cell-free
result.type: fraction unbound
Please respond with just the number, no unit label.

# compound "O=C(Nc1ccccc1F)N[C@H]1N=C(c2ccccc2)c2ccccc2NC1=O" ; its fraction unbound = 0.05

---

method.summary: Half life in rat at 5 mg/kg, po
stated.conditions: in vivo
result.type: half-life (h)
The answer is to be given in h; state only the numeric part.

# compound "O=C(Nc1ccccc1F)N[C@H]1N=C(c2ccccc2)c2ccccc2NC1=O" ; its half-life = 2.6

---

method.summary: Cmax in rat at 5 mg/kg, po
Type: ADME, organism-based
Set-up: dose 5 mg/kg, route oral
stated.conditions: in vivo
result.type: Cmax (ng/mL)
The answer is to be given in ng/mL; state only the numeric part.

# compound "O=C(Nc1ccccc1F)N[C@H]1N=C(c2ccccc2)c2ccccc2NC1=O" ; its Cmax = 910

---

Listed compounds paired with reported IC50
System: Respiratory syncytial virus
method.summary: Antiviral activity against RSV RSS in Hep2 cells by XTT assay
Type: functional, organism-based, HEp-2
stated.conditions: human respiratory syncytial virus, RSS, HEp-2
The answer is to be given in µM; state only the numeric part.

These recorded examples may help you get a feel for the data.
# compound O=C(NC1N=C(c2ccccc2)c2ccccc2NC1=O)C1CCCCC1 (centres undefined) ; its IC50 = 12.6

# compound "COc1cc([N+](=O)[O-])ccc1C(=O)N[C@@H]1N=C(c2ccccc2)c2ccccc2NC1=O" ; its IC50 = 21.2

# compound "O=C(Nc1ccccc1F)N[C@@H]1N=C(c2ccccc2)c2ccccc2NC1=O" ; its IC50 = 27.8

# compound "O=C(CN1C(=O)[C@@H](NC(=O)Nc2ccccc2F)N=C(c2ccccc2)c2ccccc21)Nc1ccncc1" ; its IC50 = 14.2

# compound "O=C(N[C@H]1N=C(c2ccccc2)c2ccccc2NC1=O)c1ccc(F)cc1N1CCCCC1" ; its IC50 = 7.5

Next item in the queue.
# compound "O=C(Nc1ccccc1F)N[C@H]1N=C(c2ccccc2)c2ccccc2NC1=O" ; its IC50 = 0.9

---

System: Respiratory syncytial virus
method.summary: Antiviral activity against RSV RSS in Hep2 cells by XTT assay
Format: functional, organism-based, HEp-2
stated.conditions: human respiratory syncytial virus, RSS, HEp-2
pIC50: −log10 of the molar value.
result.type: pIC50

The observed pIC50 for "CCNC(=O)CN1C(=O)[C@@H](NC(=O)Nc2ccccc2F)N=C(c2ccccc2)c2ccccc21" when tested with Respiratory syncytial virus stands at < 4.30

The observed pIC50 for "O=C(Nc1ccccc1F)N[C@H]1N=C(c2ccccc2)c2ccccc2N(CC(=O)N2CCOCC2)C1=O" when tested with Respiratory syncytial virus stands at < 4.30

Next item in the queue.
The observed pIC50 for "O=C(N[C@@H]1N=C(c2ccccc2)c2ccccc2NC1=O)C1CCCCC1" when tested with Respiratory syncytial virus stands at < 4.30
